Species on record: Rattus norvegicus
Assay: Open TG-GATES - Regimen: Single
Assay type: toxicity, organism-based, Sprague-Dawley
Design: regimen Single, gender Male, age 6 weeks
Conditions: in vivo, po, 1000 mg/kg, 24 h, tissue Blood, route gavage, dose level High
Param threshold (100 x10_2/uL) applies to WBC; output true when value >= threshold, false when value < threshold.

Below are worked cases with known answers.
INSERT INTO results (molecule, assigned_label) VALUES
  ('O=C(O)c1cc(/N=N/c2ccc(S(=O)(=O)Nc3ccccn3)cc2)ccc1O', 'false'),
  ('Clc1ccccc1CN1CCc2sccc2C1', 'false'),
  ('C[C@H](CS)C(=O)N1CCC[C@H]1C(=O)O', 'false'),
  ('CCc1cc(C(N)=S)ccn1 [ETHIONAMIDE]', 'false');

Here's the next entry for you.
// query Is reported WBC greater than or equal to 100 x10_2/uL here: O=C(O)c1cn(C2CC2)c2cc(N3CCNCC3)c(F)cc2c1=O
// result true

###

Parameter: AST. Scope: all listed entries.
Species on record: Rattus norvegicus
Assay: Open TG-GATES - Regimen: Single
Type: toxicity, organism-based, Sprague-Dawley
Set-up: regimen Single, gender Male, age 6 weeks
Conditions: in vivo, po, 300 mg/kg, 9 h, tissue Plasma, route gavage, dose level Middle
Report as a plain number; the unit IU/L is understood.

// query Consider the compound shown here: C[C@H](CS)C(=O)N1CCC[C@H]1C(=O)O [CAPTOPRIL] What is its recorded AST?
// result 55.8

// query Consider the compound shown here: O=C(O)c1cn(C2CC2)c2cc(N3CCNCC3)c(F)cc2c1=O [CIPROFLOXACIN] What is its recorded AST?
// result 67.4

// query Consider the compound shown here: CCc1cc(C(N)=S)ccn1 [ETHIONAMIDE] What is its recorded AST?
// result 72

// query Consider the compound shown here: O=C(O)c1cc(/N=N/c2ccc(S(=O)(=O)Nc3ccccn3)cc2)ccc1O [SULFASALAZINE] What is its recorded AST?
// result 65.2

// query Consider the compound shown here: Clc1ccccc1CN1CCc2sccc2C1 [TICLOPIDINE] What is its recorded AST?
// result 65.4

###

Species: Rattus norvegicus
Experiment: Open TG-GATES - Regimen: Single
Assay type: toxicity, organism-based, Sprague-Dawley
Design: regimen Single, gender Male, age 6 weeks
Details: in vivo, po, 300 mg/kg, 9 h, tissue Blood, route gavage, dose level Middle
property.label: Plat (x10_4/uL)
Report as a plain number; the unit x10_4/uL is understood.

Solved cases (3 shown):
INSERT INTO results (compound, assay_value) VALUES
  ('CCc1cc(C(N)=S)ccn1 [ETHIONAMIDE]', 119.7),
  ('O=C(O)c1cn(C2CC2)c2cc(N3CCNCC3)c(F)cc2c1=O', 101.9),
  ('Clc1ccccc1CN1CCc2sccc2C1', 132.7);

Then there is this compound:
// query Consider the compound shown here: O=C(O)c1cc(/N=N/c2ccc(S(=O)(=O)Nc3ccccn3)cc2)ccc1O What is its recorded Plat?
// result 118.9

###

Species: Rattus norvegicus
Assay: Open TG-GATES - Regimen: Single
Type: toxicity, organism-based, Sprague-Dawley
Design: regimen Single, gender Male, age 6 weeks
Conditions: in vivo, po, 100 mg/kg, 9 h, tissue Plasma, route gavage, dose level Low
property.label: TP (g/dL)
Report as a plain number; the unit g/dL is understood.

Solved cases (4 shown):
INSERT INTO results (compound, property_label, assay_value) VALUES
  ('C[C@H](CS)C(=O)N1CCC[C@H]1C(=O)O [CAPTOPRIL]', 'TP', 5.2),
  ('Clc1ccccc1CN1CCc2sccc2C1 [TICLOPIDINE]', 'TP', 5.4),
  ('O=C(O)c1cn(C2CC2)c2cc(N3CCNCC3)c(F)cc2c1=O [CIPROFLOXACIN]', 'TP', 5.6),
  ('O=C(O)c1cc(/N=N/c2ccc(S(=O)(=O)Nc3ccccn3)cc2)ccc1O [SULFASALAZINE]', 'TP', 5.5);

Then there is this compound:
// query Consider the compound shown here: CCc1cc(C(N)=S)ccn1 [ETHIONAMIDE] What is its recorded TP?
// result 5.3

###

Species: Rattus norvegicus
Assay: Open TG-GATES - Regimen: Single
Type: toxicity, organism-based, Sprague-Dawley
Design: regimen Single, gender Male, age 6 weeks
Conditions: in vivo, po, 0 mg/kg, 9 h, tissue Plasma, route gavage, dose level Control
property.label: RALB (g/dL)
Report as a plain number; the unit g/dL is understood.

Solved cases (6 shown):
INSERT INTO measurements (molecule, property_label, assay_value) VALUES
  ('C[C@H](CS)C(=O)N1CCC[C@H]1C(=O)O [CAPTOPRIL]', 'RALB', 3.6),
  ('O=C(O)c1cc(/N=N/c2ccc(S(=O)(=O)Nc3ccccn3)cc2)ccc1O [SULFASALAZINE]', 'RALB', 3.4),
  ('CC(=O)Oc1ccccc1C(=O)O [ASPIRIN]', 'RALB', 3.4),
  ('NC(=O)N/N=C/c1ccc([N+](=O)[O-])o1 [NITROFURAZONE]', 'RALB', 2.4),
  ('CSc1ccc2c(c1)N(CCC1CCCCN1C)c1ccccc1S2 (configuration not stated) [THIORIDAZINE]', 'RALB', 4),
  ('Cn1c(=O)c2[nH]cnc2n(C)c1=O.O [THEOPHYLLINE]', 'RALB', 3.1);

// query Consider the molecule shown here: COc1ccc(Cc2nccc3cc(OC)c(OC)cc23)cc1OC [PAPAVERINE] What is its recorded RALB?
// result 3

// query Consider the molecule shown here: Clc1ccccc1CN1CCc2sccc2C1 [TICLOPIDINE] What is its recorded RALB?
// result 3.3

###

Species on record: Rattus norvegicus
Experiment: Open TG-GATES - Regimen: Single
Assay type: toxicity, organism-based, Sprague-Dawley
Set-up: regimen Single, gender Male, age 6 weeks
Settings: in vivo, po, 100 mg/kg, 3 h, tissue Plasma, route gavage, dose level Low
Param threshold (1 IU/L) applies to gamma-GTP; output Fulfilled when value >= threshold, Not fulfilled when value < threshold.

Below are worked cases with known answers.
INSERT INTO results (compound, assigned_label) VALUES
  ('Clc1ccccc1CN1CCc2sccc2C1', 'Not fulfilled'),
  ('O=C(O)c1cn(C2CC2)c2cc(N3CCNCC3)c(F)cc2c1=O', 'Fulfilled'),
  ('CCc1cc(C(N)=S)ccn1 [ETHIONAMIDE]', 'Fulfilled');

// query Is reported gamma-GTP greater than or equal to 1 IU/L here: C[C@H](CS)C(=O)N1CCC[C@H]1C(=O)O
// result Fulfilled

// query Is reported gamma-GTP greater than or equal to 1 IU/L here: O=C(O)c1cc(/N=N/c2ccc(S(=O)(=O)Nc3ccccn3)cc2)ccc1O
// result Fulfilled

###

Species: Rattus norvegicus
Assay: Open TG-GATES - Regimen: Single
Format: toxicity, organism-based, Sprague-Dawley
Design: regimen Single, gender Male, age 6 weeks
Details: in vivo, po, 1000 mg/kg, 9 h, tissue Blood, route gavage, dose level High
property.label: Hb (g/dL)
Report as a plain number; the unit g/dL is understood.

INSERT INTO assay_data (compound, assay_value) VALUES
  ('Clc1ccccc1CN1CCc2sccc2C1', 13.6),
  ('O=C(O)c1cc(/N=N/c2ccc(S(=O)(=O)Nc3ccccn3)cc2)ccc1O', 13.2),
  ('C[C@H](CS)C(=O)N1CCC[C@H]1C(=O)O', 12.7),
  ('CCc1cc(C(N)=S)ccn1 [ETHIONAMIDE]', 14);

// query Consider the compound shown here: O=C(O)c1cn(C2CC2)c2cc(N3CCNCC3)c(F)cc2c1=O What is its recorded Hb?
// result 13.2

###

Species: Rattus norvegicus
Test: Open TG-GATES - Regimen: Single
Type: toxicity, organism-based, Sprague-Dawley
Parameters: regimen Single, gender Male, age 6 weeks
Conditions: in vivo, po, 100 mg/kg, 9 h, tissue Blood, route gavage, dose level Low
property.label: MCHC (%)
Report as a plain number; the unit % is understood.

Solved cases (3 shown):
INSERT INTO assay_data (molecule, property_label, assay_value) VALUES
  ('Clc1ccccc1CN1CCc2sccc2C1', 'MCHC', 35.4),
  ('CCc1cc(C(N)=S)ccn1 [ETHIONAMIDE]', 'MCHC', 33.7),
  ('O=C(O)c1cc(/N=N/c2ccc(S(=O)(=O)Nc3ccccn3)cc2)ccc1O', 'MCHC', 34);

Then there is this molecule:
// query Consider the molecule shown here: C[C@H](CS)C(=O)N1CCC[C@H]1C(=O)O What is its recorded MCHC?
// result 33
